Taken from patent US9090600B2.

conditions: pH 2.7
Marks after values point to notes of the source that are not given here.
Listing of recorded LogP by entry.

>>> experimental_value("CC(Oc1ccccc1)C(=O)Nc1cccc(CO/N=C(/c2ccccc2)c2noc(=O)n2C)n1 (stereo not shown)")
"3.96 [a]"
>>> experimental_value("CCn1c(/C(=N\\OCc2cccc(NC(=O)CCc3ccccc3)n2)c2ccccc2)noc1=O")
"4.01 [a]"
>>> experimental_value("CC(C)C(C)OC(=O)Nc1cccc(CO/N=C(/c2ccccc2)c2noc(=O)n2C)n1 (stereo not shown)")
"4.27 [a]"

Per the records, this molecule ( `CCCCCCCCC(=O)Nc1cccc(CO/N=C(/c2ccccc2)c2noc(=O)n2C)n1` ) has LogP equal to 5.11 [a]
